The reported measurements were obtained from patent US11701372B2.

Examples of compounds with documented % assay/degs, difference from T = 0 follow.
# Format: physicochemical
# test-settings: pH 3.8; Ambient; 24 h
# Procedure: For each condition, samples were staged at ambient and refrigerated conditions. Samples were analyzed for % assay/degs, appearance, reconstitution time, pH, and compared to T=0. The structures of the key impurities/metabolites are shown below.
property-label: % assay/degs, difference from T = 0 (%)

{"compound": "CCC(CC)COC(=O)[C@H](C)N[P@](=O)(OC[C@H]1O[C@@](C#N)(c2ccc3c(N)ncnn23)[C@H](O)[C@@H]1O)Oc1ccccc1 [Formula Ia]", "value-units": "%", "observed-value": 0.4}
{"compound": "CCC(CC)COC(=O)[C@H](C)N[P@](=O)(OC[C@H]1O[C@@](C(N)=O)(c2ccc3c(N)ncnn23)[C@H](O)[C@@H]1O)Oc1ccccc1 [Compound G]", "value-units": "%", "observed-value": 0.00}
{"compound": "N#C[C@@]1(c2ccc3c(N)ncnn23)O[C@H](COP(=O)(O)Oc2ccccc2)[C@@H](O)[C@H]1O [Compound F]", "value-units": "%", "observed-value": 0.02}
{"compound": "N#C[C@@]1(c2ccc3c(N)ncnn23)O[C@H](CO)[C@@H](O)[C@H]1O [Compound A]", "value-units": "%", "observed-value": 0.00}
